The measured values listed here are drawn from patent US20090022728A1.

Target: T1, biotinylated Aβ1-40 peptide (biotinylated (N-biotinylated in Example 7))
T1 construct: captured on streptavidin (SA) chip; also called Biotinylated Aβ peptide 1-40; Aβ1-40 on SA chip
T1 sequence (peptide, as listed by the source): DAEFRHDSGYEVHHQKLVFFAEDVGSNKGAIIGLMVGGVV
Assay: SPR, Fab over Aβ1-40 on SA chip; KD=koff/kon
Can you tell me Kd for the items I'm about to list?
Give bare numbers, in nM.

Field: example entries. Status: answers known.
Binder	Reported value
9TL variant M53 Fab (Fab, V domains shown, Fab; human IgG2 CH1 and kappa CL) VH: QVQLVQSGAEVKKPGASVKVSCKASGYYTEAYYIHWVRQAPGQGLEWMGRIDPATGNTKYAPRLQDRVTMTRDTSTSTVYMELSSLRSEDTAVYYCASLYSLPVWWGQGTTVTVSS VL: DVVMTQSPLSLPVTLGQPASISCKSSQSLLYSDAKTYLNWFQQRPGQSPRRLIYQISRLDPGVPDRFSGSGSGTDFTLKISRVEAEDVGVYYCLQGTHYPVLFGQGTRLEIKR	4.09
9TL variant M29 Fab (Fab, V domains shown, Fab; human IgG2 CH1 and kappa CL) VH: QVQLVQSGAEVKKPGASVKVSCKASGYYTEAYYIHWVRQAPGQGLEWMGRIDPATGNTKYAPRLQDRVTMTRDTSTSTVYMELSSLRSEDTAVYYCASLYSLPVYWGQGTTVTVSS VL: DVVMTQSPLSLPVTLGQPASISCKSSQSLLYSDAKTYLNWFQQRPGQSPRRLIYQISRLDPGVPDRFSGSGSGTDFTLKISRVEAEDVGVYYCLQGTHYPVSFGQGTRLEIKR	2.39
9TL variant M26 Fab (Fab, V domains shown, Fab; human IgG2 CH1 and kappa CL) VH: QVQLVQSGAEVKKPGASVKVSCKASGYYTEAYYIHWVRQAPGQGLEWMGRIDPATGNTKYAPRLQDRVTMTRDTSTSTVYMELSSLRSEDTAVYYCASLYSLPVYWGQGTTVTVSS VL: DVVMTQSPLSLPVTLGQPASISCKSSQSLLYSDAKTYLNWFQQRPGQSPRRLIYQISRLDPGVPDRFSGSGSGTDFTLKISRVEAEDVGVYYCLQGTHYPALFGQGTRLEIKR	28.3
9TL variant M24 Fab (Fab, V domains shown, Fab; human IgG2 CH1 and kappa CL) VH: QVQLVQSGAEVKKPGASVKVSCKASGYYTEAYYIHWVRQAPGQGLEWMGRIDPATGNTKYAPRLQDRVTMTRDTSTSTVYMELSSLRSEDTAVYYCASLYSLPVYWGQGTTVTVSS VL: DVVMTQSPLSLPVTLGQPASISCKSSQSLLYSDAKTYLNWFQQRPGQSPRRLIYQISRLDPGVPDRFSGSGSGTDFTLKISRVEAEDVGVYYCLQGTHYPHLFGQGTRLEIKR	18.9

Please examine the following record next.
Lookup: May I ask what Kd has been recorded for 9TL variant M23 Fab (Fab, V domains shown, Fab; human IgG2 CH1 and kappa CL) VH: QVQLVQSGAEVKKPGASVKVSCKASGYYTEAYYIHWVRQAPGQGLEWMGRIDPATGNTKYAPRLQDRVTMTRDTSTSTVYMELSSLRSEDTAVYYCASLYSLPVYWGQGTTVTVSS VL: DVVMTQSPLSLPVTLGQPASISCKSSQSLLYSDAKTYLNWFQQRPGQSPRRLIYQISRLDPGVPDRFSGSGSGTDFTLKISRVEAEDVGVYYCLQGTHYPKLFGQGTRLEIKR ?
Found: 15.7
